Origin of the recorded values: patent US20260258084A1

- System: Pancreatin
- Protocol Notes: Protease stability in simulated intestinal fluid (Pancreatin-SIF, FaSSIF)
- Assay type: in vitro ADME
- Setup Conditions: 120 min, 1 μM peptide, 37° C., read-out: FaSSIF 120 (min), remaining percent of peptide
Starred links: 1 amine or outer side, 2 acyl side, 3 side chain; linkers in the order of their positions; H or OH if unused. Positions of bridges follow the written chain, without caps; N, C: chain ends. Non-standard residues stand in square brackets, D forms with d. Residues, ends and D or L forms follow the SMILES beside them. *: point of attachment. X6 = O=C(CCC(=O)[*:3])N[C@@H](CS[*:2])C(=O)[*:1]; Trp(7-Me) = Cc1cccc2c(C[C@H](N)C(=O)O)c[nH]c12; 2Nal = N[C@@H](Cc1ccc2ccccc2c1)C(=O)O; 3Pal = N[C@@H](Cc1cccnc1)C(=O)O; Thp = NC1(C(=O)O)CCOCC1; Me2NCH2CH2 = CN(C)CC*; Aib = CC(C)(N)C(=O)O; Ahx = NCCCCCC(=O)O; Sar = CNCC(=O)O
# remaining at 2 h, 1 µM per record follows
Record the value in %, omitting the unit from your answer.

# Compound, remaining at 2 h, 1 µM, %
rows = [
    ("CC(=O)NCCCC[C@@H]1NC(=O)[C@H](Cc2c[nH]c3c(C)cccc23)NC(=O)[C@@H](NC(C)=O)CCCCNC(=O)[C@@H]2CSSC[C@H](NC1=O)C(=O)N[C@@H](Cc1ccc(OCCN(C)C)cc1)C(=O)N[C@@H](Cc1ccc3ccccc3c1)C(=O)NC1(CCOCC1)C(=O)N[C@H](C(=O)N[C@@H](CC(N)=O)C(=O)N[C@@H](Cc1cccnc1)C(=O)N(C)CC(N)=O)CCCCNC(=O)CCC(=O)N2 [compound 105] (Ac-K[Trp(7-Me)]K(Ac)CY(Me2NCH2CH2)[2Nal][Thp]KN[3Pal][Sar]-NH2; linker 1-4-8 via X6)", 80),
]

--- query ---
Request the reported remaining at 2 h, 1 µM associated with COc1ccc(C[C@@H]2NC(=O)[C@@H]3CSSC[C@H](NC(=O)CCCCCNC(=O)C[C@@H](C(=O)N[C@@H](CC(N)=O)C(=O)N[C@@H](CC(N)=O)C(N)=O)NC(=O)C(C)(C)NC(=O)[C@H](Cc4ccc5ccccc5c4)NC2=O)C(=O)N[C@@H](CC(N)=O)C(=O)N[C@@H]([C@@H](C)O)C(=O)N[C@@H](Cc2c[nH]c4ccccc24)C(=O)N[C@@H](CCC(N)=O)C(=O)N3)cc1 [compound 3] ([Ahx]CNTWQCY(Me)[2Nal][Aib]DNN-NH2; disulfide 2-7; lactam N-11)
64

----------
# solubility at 2 h per record follows
- Protocol Notes: Solubility testing of peptides at different pH
- Format: physicochemical
- Setup Conditions: 50 mM phosphate buffer pH 6.5; target concentration 1 mg/ml; 2 hours agitation; read-out: Solubility Buffer pH 6.5
Starred links: 1 amine or outer side, 2 acyl side, 3 side chain; linkers in the order of their positions; H or OH if unused. Positions of bridges follow the written chain, without caps; N, C: chain ends. Non-standard residues stand in square brackets, D forms with d. Residues, ends and D or L forms follow the SMILES beside them. *: point of attachment. X3 = CN(CCCCC(=O)N[C@@H](CS[*:2])C(=O)[*:1])[*:3]; Trp(7-Me) = Cc1cccc2c(C[C@H](N)C(=O)O)c[nH]c12; 2Nal = N[C@@H](Cc1ccc2ccccc2c1)C(=O)O; AEF = NCCOc1ccc(C[C@H](N)C(=O)O)cc1; X4 = CN(CCCCCC(=O)[*:2])[*:1]; αMeL = CC(C)C[C@](C)(N)C(=O)O; Me2NCH2CH2 = CN(C)CC*; Aib = CC(C)(N)C(=O)O

# Compound, solubility at 2 h
measured = [
    ("CC(C)C[C@@H](NC(=O)[C@H](CC(N)=O)NC(=O)[C@@H]1CC(=O)N(C)CCCCCC(=O)N[C@H]2CSSC[C@H](NC(=O)[C@H](CCC(N)=O)NC(=O)[C@H](Cc3c[nH]c4ccccc34)NC(=O)[C@H]([C@@H](C)O)NC(=O)[C@H](CC(N)=O)NC2=O)C(=O)N[C@@H](Cc2ccc(OCCN(C)C)cc2)C(=O)N[C@@H](Cc2ccc3ccccc3c2)C(=O)N[C@@](C)(CC(C)C)C(=O)N1)C(N)=O [compound 40] ([X4]CNTWQCY(Me2NCH2CH2)[2Nal][αMeL]DN[dL]-NH2; disulfide 2-7; lactam N-11)", "< 10 µg/mL"),
    ("CC(=O)N[C@H]1CCCCNC(=O)[C@@H]2CSSC[C@H](NC(=O)[C@H](CCC(N)=O)NC(=O)[C@H](Cc3c[nH]c4ccccc34)NC1=O)C(=O)N[C@@H](Cc1ccc(OCCN)cc1)C(=O)N[C@@H](Cc1ccc3ccccc3c1)C(=O)NC(C)(C)C(=O)N[C@H](C(=O)N[C@@H](CC(N)=O)C(=O)NCC(N)=O)CCC(=O)N(C)CCCCC(=O)N2 [compound 15] (Ac-KWQC[AEF][2Nal][Aib]ENG-NH2; linker 1-4-8 via X3)", "≥ 960 µg/mL"),
]

--- query ---
Request the reported solubility at 2 h associated with CC(=O)NCCCC[C@@H]1NC(=O)[C@H](Cc2c[nH]c3c(C)cccc23)NC(=O)[C@@H](NC(C)=O)CCCCNC(=O)[C@@H]2CSSC[C@H](NC1=O)C(=O)N[C@@H](Cc1ccc(OCCN(C)C)cc1)C(=O)N[C@@H](Cc1ccc3ccccc3c1)C(=O)NC(C)(C)C(=O)N[C@H](C(=O)N[C@@H](CC(N)=O)C(=O)N[C@@H](Cc1c[nH]cn1)C(N)=O)CCC(=O)N(C)CCCCC(=O)N2 [compound 60] (Ac-K[Trp(7-Me)]K(Ac)CY(Me2NCH2CH2)[2Nal][Aib]ENH-NH2; linker 1-4-8 via X3)
≥ 1000 µg/mL
